Tested Target: recombinant active human PAI-1 (Homo sapiens (Human), UniProt P05121)
Sequence (P05121 24-402): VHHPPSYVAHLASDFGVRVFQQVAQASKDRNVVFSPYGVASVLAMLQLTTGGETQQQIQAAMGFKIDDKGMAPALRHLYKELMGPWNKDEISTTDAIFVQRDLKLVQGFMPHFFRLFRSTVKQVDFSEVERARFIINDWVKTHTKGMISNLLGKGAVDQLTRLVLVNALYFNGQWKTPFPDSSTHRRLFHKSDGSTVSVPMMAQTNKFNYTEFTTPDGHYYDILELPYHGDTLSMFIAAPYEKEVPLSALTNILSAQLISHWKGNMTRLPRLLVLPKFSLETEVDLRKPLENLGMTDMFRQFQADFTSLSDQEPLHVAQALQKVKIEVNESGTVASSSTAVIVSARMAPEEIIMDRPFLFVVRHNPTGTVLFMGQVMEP
Procedure Text: Fluorometric PAI-1/uPA IC50 plate assay at pH 7.4
Type: biochemical
Test Conditions: physiologic buffer (40 mM HEPES, 100 mM NaCl, 0.05% Tween-20, 10% DMSO), read-out: PAI-1/uPA IC50 in buffer
Measured Metric: IC50 (µM)

// below: answered compounds
O=C1Cc2cc(-c3csc(-c4ccc(O)c(O)c4)n3)ccc2N1 [C228] :: 14.8
Cc1cc(CNC(=O)CCc2ccc(O)c(O)c2)ccc1F [C358] :: 1500
CCOC(=O)C(=O)NCc1cccc(Cl)c1 [C265] :: 4020
O=C(CCc1ccc(O)c(O)c1)NCc1cccc(OC(F)(F)F)c1 [C357] :: 1370

A = O=S(=O)(NCc1ccc(Cl)c(C(F)(F)F)c1)c1ccc(O)c(O)c1 [C303]
B = O=C(O)C(=O)NCc1ccc(Cl)c(C(F)(F)F)c1 [C309]
C = NNC(=O)CCC(=O)NCc1cccc(C(F)(F)F)c1 [C289]
Query: Could you please sort these 3 entries by IC50 from high to low? When ranking, write the labels in the order the request describes.
Response: C, B, A

I = N#Cc1ccc(CNC(=O)C(=O)NN)cc1 [C336]
II = COC(=O)CCC(=O)NCc1cccc(C(F)(F)F)c1 [C288]
Query: Select one: I or II . Criterion: greater recorded IC50. Field: selected label. Fill in the label of the entry you choose.
Response: I

I = CC(C)=NNC(=O)C(=O)NCc1cc(F)cc(F)c1 [C313]
II = O=C(NCc1ccc(C(F)(F)F)cc1)c1ccc(O)c(O)c1 [C363]
Query: Select one: I or II . Criterion: greater recorded IC50. Field: selected label. Fill in the label of the entry you choose.
Response: I
(I: 1200 µM, II: 199 µM)

====

Tested Target: recombinant active human PAI-1 (Homo sapiens (Human), UniProt P05121)
Procedure Text: Fluorometric PAI-1/tPA IC50 plate assay at pH 7.8
Format: biochemical
Test Conditions: physiologic buffer
Measured Metric: IC50 (nM)

CCCCCCCCCCN(S(=O)(=O)c1ccc(O)c(O)c1)S(=O)(=O)c1ccc(O)c(O)c1 :: 980

I = CCCCCCCCN(S(=O)(=O)c1cc(F)c(O)c(F)c1)S(=O)(=O)c1cc(F)c(O)c(F)c1
II = O=S(=O)(c1ccc(O)c(O)c1)N(c1cccc(C(F)(F)F)c1)S(=O)(=O)c1ccc(O)c(O)c1
Query: Select one: I or II . Criterion: greater recorded IC50. Field: selected label. Fill in the label of the entry you choose.
Response: I
(I: 34800 nM, II: 611 nM)

====

Tested Target: recombinant active human PAI-1 (Homo sapiens (Human), UniProt P05121)
Procedure Text: Fluorometric PAI-1/uPA IC50 plate assay at pH 7.8
Format: biochemical
Test Conditions: physiologic buffer
pIC50: −log10 of the molar value.
Measured Metric: pIC50

1 = CC(C)(C)n1nc(-c2ccc(O)cc2)nc1Cc1ccc(O)c(O)c1
2 = O=S(=O)(NCCc1ccccc1)c1ccc(O)c(O)c1
3 = O=C1S/C(=C\c2ccc(O)c(O)c2)C(=O)N1Cc1cccc(Br)c1
Query: Rank the listed compounds according to pIC50, from the largest value downward. When ranking, write the labels in the order the request describes.
Response: 3, 2, 1

The measured values listed here are drawn from patent US9718760B2.
